Molecular target: T1, CH2-4 constant domains of human IgE linked to a transmembrane protein, on 293 cells (human, UniProt P01854-1 104-428)
T1 construct: domain: CH2-4 constant domains; also called human IgE-expressing 293 cells
T1 sequence (P01854 other isoform, or with tags, fused parts or gaps): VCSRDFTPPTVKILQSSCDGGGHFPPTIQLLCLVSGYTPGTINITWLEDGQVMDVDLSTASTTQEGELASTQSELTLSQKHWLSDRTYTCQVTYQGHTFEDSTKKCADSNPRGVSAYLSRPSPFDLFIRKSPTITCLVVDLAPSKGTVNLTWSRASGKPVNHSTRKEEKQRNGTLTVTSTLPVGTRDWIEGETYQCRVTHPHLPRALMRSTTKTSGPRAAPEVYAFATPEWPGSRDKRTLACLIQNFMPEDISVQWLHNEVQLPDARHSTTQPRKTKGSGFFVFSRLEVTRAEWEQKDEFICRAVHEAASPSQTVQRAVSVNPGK
Test: flow cytometry, 293 cells expressing human IgE CH2-4
The entries below are paired with their reported Bmax.
Please give a number only; it is taken to be in MFI.

Here is how some binders turned out for Bmax.
INSERT INTO assay_data (binder, experimental_readout, result_units, recorded_number) VALUES
  ('hzB10v41-NNT (Fc fusion, monomeric) VHH-Fc: EVQLLESGGGEVQPGGSLRLSCVASGLTFSSYNMGWLRQAPGKEREFVGLSGSSSTSTYYAESVKGRFTISRDQSKNTVYLQMTSLRAEDTAVYYCAARRLLSTYWSDRSWDFWGQGTLVTVEPGGPSVFLFPPKPKDTLMISRTPEVTCVVVDVSHEDPEVKFNWYVDGVEVHNAKTKPREEQYNSTYRVVSVLTVLHQDWLNGKEYKCKVSNKALPAPIEKTISKAKGQPREPQVYTLPPSRDELTKNQVNLTCLVKGFYPSDIAVEWESNGQPENNYKTTPPVLDSDGSFFLNSTLTVDKSRWQQGNVFSCSVMHEALHNHYTQKSLSLSPGK', 'Bmax', 'MFI', '1.33e+06'),
  ('hzB10v40 monomeric VHH-hIgG1-Fc fusion (Fc NNT) (Fc fusion, Humanized variants were tested as monomeric fusions with the non-dimerizing Fc NNT) EVQLLESGGGEVQPGGSLRLSCVASGLTFSSYNMGWLRQAPGKEREFVGLSGSSSTSTYYAESVKGRFTISRDNAKNTVYLQMTSLRAEDTAVYYCAARRLLSTYWSDRSWDFWGQGTLVTVEPGGPSVFLFPPKPKDTLMISRTPEVTCVVVDVSHEDPEVKFNWYVDGVEVHNAKTKPREEQYNSTYRVVSVLTVLHQDWLNGKEYKCKVSNKALPAPIEKTISKAKGQPREPQVYTLPPSRDELTKNQVNLTCLVKGFYPSDIAVEWESNGQPENNYKTTPPVLDSDGSFFLNSTLTVDKSRWQQGNVFSCSVMHEALHNHYTQKSLSLSPGK', 'Bmax', 'MFI', '1.38e+06'),
  ('B10-NNT (Fc fusion, monomeric; also called parental B10 monomeric VHH-hIgG1-Fc fusion (Fc NNT)) VHH-Fc: EVQLVQSGGELVQAGGSLRLSCVASGLTFSSYNMGWLRQAPGKEREFVGMSGSSSTSTYYADSVKGRFTISRDNSKNTVYLQMNSLKPEDTAVYYCAARRMLSTYWSDRSWDFWGQGTQVTVKPGGPSVFLFPPKPKDTLMISRTPEVTCVVVDVSHEDPEVKFNWYVDGVEVHNAKTKPREEQYNSTYRVVSVLTVLHQDWLNGKEYKCKVSNKALPAPIEKTISKAKGQPREPQVYTLPPSRDELTKNQVNLTCLVKGFYPSDIAVEWESNGQPENNYKTTPPVLDSDGSFFLNSTLTVDKSRWQQGNVFSCSVMHEALHNHYTQKSLSLSPGK', 'Bmax', 'MFI', '1.17e+06'),
  ('hzB10v42-NNT (Fc fusion, monomeric) VHH-Fc: EVQLLESGGGEVQPGGSLRLSCVASGLTFSSYNMGWLRQAPGKEREFVGLSGSSSTSTYYAESVKGRFTISRDSSKNTVYLQMTSLRAEDTAVYYCAARRLLSTYWSDRSWDFWGQGTLVTVEPGGPSVFLFPPKPKDTLMISRTPEVTCVVVDVSHEDPEVKFNWYVDGVEVHNAKTKPREEQYNSTYRVVSVLTVLHQDWLNGKEYKCKVSNKALPAPIEKTISKAKGQPREPQVYTLPPSRDELTKNQVNLTCLVKGFYPSDIAVEWESNGQPENNYKTTPPVLDSDGSFFLNSTLTVDKSRWQQGNVFSCSVMHEALHNHYTQKSLSLSPGK', 'Bmax', 'MFI', '1.45e+06');

Now let's try a different one.
Task: Can you share its Bmax? I mean this binder: hzB10v44-NNT (Fc fusion, monomeric) VHH-Fc: EVQLLESGGGEVQPGGSLRLSCVASGLTFSSYNMGWLRQAPGKEREFVGLSGSSSTSTYYAESVKGRFTISRDNTKNTVYLQMTSLRAEDTAVYYCAARRLLSTYWSDRSWDFWGQGTLVTVEPGGPSVFLFPPKPKDTLMISRTPEVTCVVVDVSHEDPEVKFNWYVDGVEVHNAKTKPREEQYNSTYRVVSVLTVLHQDWLNGKEYKCKVSNKALPAPIEKTISKAKGQPREPQVYTLPPSRDELTKNQVNLTCLVKGFYPSDIAVEWESNGQPENNYKTTPPVLDSDGSFFLNSTLTVDKSRWQQGNVFSCSVMHEALHNHYTQKSLSLSPGK
Output: 1.38e+06
